biological target: human GPR17 (Homo sapiens, UniProt Q13304); construct: HA; expressed in transfected cells; assay: [35S]GTPγS binding assay; assay type: biochemical; conditions: vs basal; mean ± SEM
Sequence (Q13304 29-367): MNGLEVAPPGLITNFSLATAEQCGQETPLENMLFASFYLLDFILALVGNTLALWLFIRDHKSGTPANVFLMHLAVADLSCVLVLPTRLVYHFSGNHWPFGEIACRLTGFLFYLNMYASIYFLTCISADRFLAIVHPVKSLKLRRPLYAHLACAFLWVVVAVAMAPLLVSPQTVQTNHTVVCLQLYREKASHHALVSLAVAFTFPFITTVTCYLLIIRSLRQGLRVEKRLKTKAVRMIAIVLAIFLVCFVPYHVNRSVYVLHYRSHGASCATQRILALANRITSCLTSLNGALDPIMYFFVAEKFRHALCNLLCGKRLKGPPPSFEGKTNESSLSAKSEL
Endpoint: Emax (% vs basal) (%)

>  <Smiles repr>
COc1ccc(-n2c(SCC(=O)Nc3cc(C(C)(C)C)no3)nnc2-c2ccccc2OC)cc1

>  <Endpoint>
Emax (% vs basal)

>  <Display unit>
%

>  <Measurement>
134.3

$$$$
>  <Smiles repr>
CCOc1ccc(-n2c(SCC(=O)Nc3ccc(Cl)c(C(F)(F)F)c3)nnc2-c2cccc(C)c2)cc1

>  <Endpoint>
Emax (% vs basal)

>  <Display unit>
%

>  <Measurement>
127.7

$$$$
>  <Smiles repr>
COc1ccccc1-c1nnc(SCC(=O)Nc2ncc3c(n2)CC(C)(C)CC3=O)[nH]1

>  <Endpoint>
Emax (% vs basal)

>  <Display unit>
%

>  <Measurement>
139.6

$$$$
>  <Smiles repr>
Cc1cccc(-c2n[nH]c(SCC(=O)Nc3ccccc3)n2)c1

>  <Endpoint>
Emax (% vs basal)

>  <Display unit>
%

>  <Measurement>
142.0

$$$$
